- Test System: human PDE2A1 (Homo sapiens (Human))
- Sequence (O00408 other isoform, or with tags, fused parts or gaps): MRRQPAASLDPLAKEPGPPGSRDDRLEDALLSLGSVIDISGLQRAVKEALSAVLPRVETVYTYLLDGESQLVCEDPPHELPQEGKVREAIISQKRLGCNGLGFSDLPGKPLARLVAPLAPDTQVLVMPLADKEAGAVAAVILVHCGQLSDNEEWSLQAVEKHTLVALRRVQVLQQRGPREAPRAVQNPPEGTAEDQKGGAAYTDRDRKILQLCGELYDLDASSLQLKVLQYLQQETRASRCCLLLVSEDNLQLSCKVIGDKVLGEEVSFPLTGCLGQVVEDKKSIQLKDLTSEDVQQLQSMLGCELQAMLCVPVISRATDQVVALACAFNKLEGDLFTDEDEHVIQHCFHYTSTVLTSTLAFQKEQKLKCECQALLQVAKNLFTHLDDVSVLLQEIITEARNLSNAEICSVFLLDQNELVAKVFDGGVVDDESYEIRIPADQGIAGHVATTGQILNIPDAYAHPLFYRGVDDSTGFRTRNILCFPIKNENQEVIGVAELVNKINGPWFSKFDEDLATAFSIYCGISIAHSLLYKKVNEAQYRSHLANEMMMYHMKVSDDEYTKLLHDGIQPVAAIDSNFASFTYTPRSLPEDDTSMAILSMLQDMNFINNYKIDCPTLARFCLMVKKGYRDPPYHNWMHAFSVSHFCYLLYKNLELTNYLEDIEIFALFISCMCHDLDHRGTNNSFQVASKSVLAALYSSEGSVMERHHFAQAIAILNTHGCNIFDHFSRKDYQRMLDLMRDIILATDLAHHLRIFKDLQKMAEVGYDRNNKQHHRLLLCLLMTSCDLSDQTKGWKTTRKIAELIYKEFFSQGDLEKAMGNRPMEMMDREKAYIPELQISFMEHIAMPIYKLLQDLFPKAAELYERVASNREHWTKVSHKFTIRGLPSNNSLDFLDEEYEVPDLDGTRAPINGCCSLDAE
- Test Summary: PDE2 IMAP FP inhibition assay, human PDE2A1 (selectivity panel format)
- Format: biochemical
- Study Conditions: Lab A; read-out: Human PDE2 Ki (nM) - Lab A
# log10(Ki) values compiled below
Endpoint Label: log10(Ki) (log10 of the value in nM)

| Structure As Smiles | log10(Ki) |
| --- | --- |
| CSc1nc(C(=O)N[C@H](C)c2ccc(C(F)(F)F)cc2)cc(=O)[nH]1 | 1.49 |
| C[C@@H](NC(=O)c1cc(=O)[nH]c(N)n1)c1ccc(C(F)(F)F)cc1 | 2.16 |
| C[C@@H](NC(=O)c1cc(=O)[nH]c(N2CCC2)n1)c1ccc(C(F)(F)F)cc1 | 0.91 |
| C[C@@H](NC(=O)c1cc(=O)[nH]c(N2CCOCC2)n1)c1ccc(C(F)(F)F)cc1 | 1.48 |
| CC(C)[C@@H](NC(=O)c1cc(=O)[nH]c(N2CCCC2)n1)c1ccc(C(F)(F)F)cc1 | -0.74 |
| CN(C)c1nc(C(=O)N[C@@H](c2ccc(SC(F)(F)F)c(F)c2)C2CC2)cc(=O)[nH]1 | -0.47 |
| CC(C)[C@@H](NC(=O)c1cc(=O)[nH]c(N2CCC2)n1)c1ccc(SC(F)(F)F)cc1 | -0.70 |
| C[C@@H](NC(=O)c1cc(=O)[nH]c(N2CC(F)(F)C2)n1)c1ccc(C(F)(F)F)cc1 | 1.60 |
| C[C@@H](NC(=O)c1cc(=O)[nH]c(N2CC(F)C2)n1)c1ccc(C(F)(F)F)cc1 | 1.20 |
| C[C@@H](NC(=O)c1cc(=O)[nH]c(N(C)C)n1)c1ccc(S(F)(F)(F)(F)F)cc1 | -0.39 |
| CNc1nc(C(=O)N[C@@H](c2ccc(OC(F)(F)F)c(F)c2)C(C)C)cc(=O)[nH]1 | 0.45 |

====

- Test System: P-glycoprotein (P-gp, rat Mdr1a) (Rattus norvegicus, UniProt Q6PSM0)
- Sequence (Q6PSM0 1-1272): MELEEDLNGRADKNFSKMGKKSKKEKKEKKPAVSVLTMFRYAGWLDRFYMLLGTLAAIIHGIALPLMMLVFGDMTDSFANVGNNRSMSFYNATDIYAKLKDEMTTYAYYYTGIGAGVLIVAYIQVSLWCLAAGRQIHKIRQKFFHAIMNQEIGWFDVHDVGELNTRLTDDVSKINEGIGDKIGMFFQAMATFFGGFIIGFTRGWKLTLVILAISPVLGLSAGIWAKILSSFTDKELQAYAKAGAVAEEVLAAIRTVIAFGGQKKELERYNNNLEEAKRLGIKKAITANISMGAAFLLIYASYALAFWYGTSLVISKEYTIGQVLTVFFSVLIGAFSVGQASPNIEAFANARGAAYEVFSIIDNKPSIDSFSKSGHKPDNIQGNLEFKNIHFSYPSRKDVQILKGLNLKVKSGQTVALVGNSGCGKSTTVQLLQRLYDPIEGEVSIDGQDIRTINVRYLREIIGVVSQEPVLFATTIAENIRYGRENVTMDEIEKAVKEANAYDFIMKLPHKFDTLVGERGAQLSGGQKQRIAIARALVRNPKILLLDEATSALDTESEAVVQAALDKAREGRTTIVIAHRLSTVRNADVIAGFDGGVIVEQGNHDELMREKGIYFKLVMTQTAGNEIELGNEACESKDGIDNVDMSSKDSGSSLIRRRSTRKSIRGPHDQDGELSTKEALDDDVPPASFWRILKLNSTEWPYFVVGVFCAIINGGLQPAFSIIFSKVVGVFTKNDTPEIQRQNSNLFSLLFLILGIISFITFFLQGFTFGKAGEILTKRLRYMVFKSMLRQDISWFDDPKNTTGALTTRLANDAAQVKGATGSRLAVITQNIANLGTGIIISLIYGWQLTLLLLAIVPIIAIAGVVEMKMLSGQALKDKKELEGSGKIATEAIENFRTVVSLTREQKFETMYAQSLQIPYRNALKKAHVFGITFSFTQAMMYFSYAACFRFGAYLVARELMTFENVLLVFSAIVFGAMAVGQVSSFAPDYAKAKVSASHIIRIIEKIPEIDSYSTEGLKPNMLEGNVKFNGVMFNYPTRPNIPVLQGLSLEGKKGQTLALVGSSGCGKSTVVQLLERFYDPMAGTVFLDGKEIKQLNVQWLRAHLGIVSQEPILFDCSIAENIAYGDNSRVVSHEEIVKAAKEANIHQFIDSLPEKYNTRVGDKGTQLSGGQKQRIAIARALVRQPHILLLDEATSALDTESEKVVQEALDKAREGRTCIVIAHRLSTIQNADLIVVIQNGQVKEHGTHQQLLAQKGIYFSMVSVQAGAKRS
- Test Summary: P-gp transport, experimental BA/AB ratio, rat LLC-Mdr1a
- Assay type: in vitro ADME
- Study Conditions: LLC-PK1; rat LLC-Mdrla; 1 μM substrate concentration
# efflux ratio at 1 μM values compiled below

| Structure As Smiles | efflux ratio at 1 μM |
| --- | --- |
| CN(C)c1nc(C(=O)NC2(c3ccc(SC(F)(F)F)cc3)CC2)cc(=O)[nH]1 | 1.7 |
| C[C@@H](NC(=O)c1cc(=O)[nH]c(NC2CCC2)n1)c1ccc(C(F)(F)F)cc1 | 29.8 |
| CC(C)[C@@H](NC(=O)c1cc(=O)[nH]c(N2CC(F)C2)n1)c1ccc(OC(F)(F)F)c(F)c1 | 7.5 |
| CN(C)c1nc(C(=O)NC2(c3ccc(S(F)(F)(F)(F)F)cc3)CC2)cc(=O)[nH]1 | 10.1 |

====

- Test System: UniProtKB P08183
- Sequence (P08183 whole entry): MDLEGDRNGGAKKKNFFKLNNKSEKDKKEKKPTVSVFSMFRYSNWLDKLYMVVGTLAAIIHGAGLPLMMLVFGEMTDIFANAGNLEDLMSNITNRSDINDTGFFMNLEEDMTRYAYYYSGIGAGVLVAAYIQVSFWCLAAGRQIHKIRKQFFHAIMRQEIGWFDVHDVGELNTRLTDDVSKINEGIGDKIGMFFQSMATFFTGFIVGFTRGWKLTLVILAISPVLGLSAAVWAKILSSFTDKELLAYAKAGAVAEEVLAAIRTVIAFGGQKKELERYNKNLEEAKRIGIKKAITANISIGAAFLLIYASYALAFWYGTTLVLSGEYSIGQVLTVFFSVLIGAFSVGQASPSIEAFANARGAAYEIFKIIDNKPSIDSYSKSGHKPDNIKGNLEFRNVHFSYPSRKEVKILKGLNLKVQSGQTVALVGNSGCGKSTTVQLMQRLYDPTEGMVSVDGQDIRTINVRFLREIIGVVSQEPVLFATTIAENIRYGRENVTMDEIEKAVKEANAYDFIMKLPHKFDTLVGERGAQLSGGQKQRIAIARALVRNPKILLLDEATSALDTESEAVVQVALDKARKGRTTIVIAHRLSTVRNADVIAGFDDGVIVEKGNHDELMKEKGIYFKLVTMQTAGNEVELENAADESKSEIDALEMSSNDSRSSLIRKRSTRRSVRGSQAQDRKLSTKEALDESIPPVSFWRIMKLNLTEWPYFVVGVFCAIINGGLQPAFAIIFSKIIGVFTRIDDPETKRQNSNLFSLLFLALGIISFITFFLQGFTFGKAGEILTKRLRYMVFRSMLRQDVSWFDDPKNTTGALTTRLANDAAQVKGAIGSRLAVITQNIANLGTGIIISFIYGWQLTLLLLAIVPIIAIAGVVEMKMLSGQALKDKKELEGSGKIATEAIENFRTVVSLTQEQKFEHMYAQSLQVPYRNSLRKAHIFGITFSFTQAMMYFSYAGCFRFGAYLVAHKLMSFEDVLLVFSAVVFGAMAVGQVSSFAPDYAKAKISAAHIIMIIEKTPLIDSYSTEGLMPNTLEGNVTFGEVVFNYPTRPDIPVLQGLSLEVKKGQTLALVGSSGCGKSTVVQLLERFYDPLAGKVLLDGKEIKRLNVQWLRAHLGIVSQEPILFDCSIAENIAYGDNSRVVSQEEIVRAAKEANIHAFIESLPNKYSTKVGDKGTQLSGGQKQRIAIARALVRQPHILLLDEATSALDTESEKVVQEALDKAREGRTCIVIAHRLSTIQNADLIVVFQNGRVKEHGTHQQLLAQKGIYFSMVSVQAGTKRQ
- Test Summary: P-gp transport, experimental BA/AB ratio, human
- Assay type: in vitro ADME
- Study Conditions: LLC-PK1, 1 μM substrate concentration
# efflux ratio at 1 μM values compiled below

| Structure As Smiles | Test System | efflux ratio at 1 μM |
| --- | --- | --- |
| C[C@@H](NC(=O)c1cc(=O)[nH]c(N)n1)c1ccc(SC(F)(F)F)cc1 | UniProtKB P08183 | 3.2 |
| O=C(N[C@@H](c1ccc(C(F)(F)F)cc1)C1CC1)c1cc(=O)[nH]c(N2CC[C@H](F)C2)n1 | UniProtKB P08183 | 1.9 |
| CNc1nc(C(=O)N[C@@H](c2ccc(C(F)(F)F)cc2)C(C)(C)C)cc(=O)[nH]1 | UniProtKB P08183 | 7.8 |
| CN(C)c1nc(C(=O)N[C@@H](c2ccc(C(C)(F)F)cc2)C(C)(C)C)cc(=O)[nH]1 | UniProtKB P08183 | 1.6 |
| C[C@@H](NC(=O)c1cc(=O)[nH]c(N2CCCC2)n1)c1ccc(SC(F)(F)F)cc1 | UniProtKB P08183 | 0.9 |
| CN(C)c1nc(C(=O)N[C@@H](c2ccc(C(F)(F)F)cc2)C(C)(C)C)cc(=O)[nH]1 | UniProtKB P08183 | 0.6 |
| CN(C)c1nc(C(=O)N[C@@H](c2ccc(C3CC3)c(F)c2)C2CC2)cc(=O)[nH]1 | UniProtKB P08183 | 0.3 |
| CN(C)c1nc(C(=O)N[C@@H](c2ccc(C(C)(C)C)cc2)C2(C)CC2)cc(=O)[nH]1 | UniProtKB P08183 | 0.7 |
